protein stability index values by entry
B1: VENTX (parent)
chain: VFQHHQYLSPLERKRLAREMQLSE

variants of: B1; assay: protein stability index of a GFP-peptide fusion (GPS, HEK-293T) (PSI 1-6); higher = more stable; details: c terminus: a fixed tail appended;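 also: lentivirally expressed fusions sorted by FACS into six bins by GFP to DsRed ratio, PSI derived from sequencing read proportions per bin multiplied by bin number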

Consider the worked cases shown below.
Q6C    1.83
E12Y    2.19
F2K    3.61
F2I    3.12
R15T    2.97

Item `E12K` has what recorded protein stability index?
1.82

Item `E12H` has what recorded protein stability index?
2.21

Item `L22R` has what recorded protein stability index?
2.44

Item `M20W` has what recorded protein stability index?
1.67

Item `R15C` has what recorded protein stability index?
1.99

Item `L11W` has what recorded protein stability index?
2.84

Item `E12F` has what recorded protein stability index?
2.58

Item `K14V` has what recorded protein stability index?
2.63

Item `H5E` has what recorded protein stability index?
3.71

Item `K14G` has what recorded protein stability index?
2.39

Item `E12I` has what recorded protein stability index?
2.66

Item `E12S` has what recorded protein stability index?
2.74

Item `M20E` has what recorded protein stability index?
3.28

Item `L16G` has what recorded protein stability index?
2.9

Where do these numbers come from? They come from the supplement of paper PMC10567573.
